experimental system: HDAC1 (Homo sapiens, UniProt Q13547)
Sequence (Q13547 whole entry): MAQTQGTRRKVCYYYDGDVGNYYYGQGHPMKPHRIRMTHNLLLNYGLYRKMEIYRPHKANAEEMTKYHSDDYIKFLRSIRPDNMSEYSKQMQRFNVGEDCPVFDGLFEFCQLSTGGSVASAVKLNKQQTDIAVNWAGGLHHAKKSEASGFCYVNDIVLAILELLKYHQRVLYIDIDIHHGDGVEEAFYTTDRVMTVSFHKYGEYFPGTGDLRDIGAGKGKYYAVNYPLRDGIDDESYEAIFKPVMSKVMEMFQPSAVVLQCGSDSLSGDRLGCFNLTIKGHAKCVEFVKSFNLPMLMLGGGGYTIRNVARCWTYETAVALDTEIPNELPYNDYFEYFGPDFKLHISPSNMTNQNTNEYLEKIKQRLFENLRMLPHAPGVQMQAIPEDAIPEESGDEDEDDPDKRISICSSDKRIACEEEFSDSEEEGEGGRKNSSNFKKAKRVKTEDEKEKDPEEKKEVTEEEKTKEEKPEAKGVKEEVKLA
assay readout: IC50

May I ask what IC50 has been recorded for Cn1cc(/C=C/C(=O)Nc2ccc(F)cc2N)cn1 ?
> 20 µM

---

System: GM 15850 (lymphoblastoid cells line) cells
assay text: In-cell deacetylase inhibition assay (DAC assay)
Type: cell-based
condition notes: Homo sapiens, GM15850; GM 15850 cells, 4 h incubation; read-out: 850 DAC (in-cell deacetylase inhibition IC50)
pIC50: −log10 of the molar value.
Each item that follows carries a reported pIC50.

# annotated cases, reported pIC50 shown
compound	pIC50
Cc1nc(/C=C/C(=O)Nc2ccccc2N)cs1 [A1]	< 4.70
Nc1ccccc1NC(=O)/C=C/c1cnn(CC/C=C/c2ccccc2)c1 [D11]	5.30 to 6.00
Nc1ccccc1NC(=O)/C=C/c1cnn(CC2CC2)c1 [B1]	4.70 to 5.00
Nc1ccccc1NC(=O)c1ccc(C=C2CN(Cc3ccc4cc[nH]c4c3)C2)cc1 [F3]	5.30 to 6.00
Nc1ccccc1NC(=O)/C=C/c1cnn(CCOc2ccccc2)c1 [D3]	5.30 to 6.00

May I ask what pIC50 has been recorded for Nc1cc(F)ccc1NC(=O)/C=C/c1cnn(CCOc2ccccc2)c1 [D16] ?
4.70 to 5.00

May I ask what pIC50 has been recorded for Nc1ccccc1NC(=O)/C=C/c1cnn(C/C=C/c2ccc(F)cc2)c1 [B2] ?
5.00 to 5.30

---

assay text: Brain penetration studies
Assay type: in vivo
condition notes: C57/BL6/J, mouse, brain and plasma; mice, s.c. 5 or 50 mg/kg or i.v. 5 mg/kg; read-out: BPR (brain/plasma ratio, Cmax(brain)/Cmax(plasma))
assay readout: Kp

# annotated cases, reported Kp shown
given smiles	Kp
Nc1ccccc1NC(=O)c1ccc(C=C2CCN(Cc3cccnc3)CC2)cc1	> 1
Nc1ccccc1NC(=O)/C=C/c1cnn(CCCc2ccccc2)c1	0.2 to 0.5
Cn1cc(/C=C/C(=O)Nc2ccccc2N)cn1	0.5 to 1
Nc1ccccc1NC(=O)/C=C/c1cnc2ccccn12	0.1 to 0.2
CN(CCCn1cc(/C=C/C(=O)Nc2ccccc2N)cn1)c1ccccc1	0.5 to 1
Nc1ccccc1NC(=O)/C=C/c1cnn(Cc2ccccc2)c1	0.2 to 0.5

May I ask what Kp has been recorded for Nc1ccccc1NC(=O)/C=C/c1cnn(CCOc2ccccc2)c1 ?
0.2 to 0.5

May I ask what Kp has been recorded for CCn1cc(/C=C/C(=O)Nc2ccccc2N)cn1 ?
0.5 to 1

May I ask what Kp has been recorded for Nc1ccccc1NC(=O)/C=C/c1cnn(CCOc2cc(F)cc(Cl)c2)c1 ?
0.2 to 0.5

May I ask what Kp has been recorded for Nc1ccccc1NC(=O)c1ccc(C=C2CN(Cc3ccc4cc[nH]c4c3)C2)cc1 ?
0.2 to 0.5

---

Test system: GM 15850 (lymphoblastoid cells line) cells
assay text: In-cell deacetylase inhibition assay (DAC assay)
Assay type: cell-based
condition notes: Homo sapiens, GM15850; GM 15850 cells, 4 h incubation; read-out: 850 DAC (in-cell deacetylase inhibition IC50)
Each item that follows carries a reported IC50.

# annotated cases, reported IC50 shown
compound	result
Nc1ccccc1NC(=O)c1ccc(CC2CN(Cc3ccc4cc[nH]c4c3)C2)cc1 [F4]	1 to 5 µM
Nc1ccccc1NC(=O)/C=C/c1cnn(Cc2ccccc2)c1 [D4]	5 to 10 µM
Nc1ccccc1NC(=O)/C=C/c1cn2ccccc2n1 [A9]	> 20 µM
Nc1ccccc1NC(=O)/C=C/c1cnn(CCc2ccccc2)c1 [D7]	5 to 10 µM

May I ask what IC50 has been recorded for Cc1cccc(Cn2cc(/C=C/C(=O)Nc3ccccc3N)cn2)n1 [D6] ?
10 to 20 µM

---

assay text: Brain penetration studies
Type: in vivo
condition notes: C57/BL6/J, mouse, brain and plasma; mice, s.c. 5 or 50 mg/kg or i.v. 5 mg/kg; read-out: BPR (brain/plasma ratio, Cmax(brain)/Cmax(plasma))
assay readout: Kp

# annotated cases, reported Kp shown
given smiles	Kp
Cc1cc(/C=C/C(=O)Nc2ccccc2N)on1	0.2 to 0.5
Nc1ccccc1NC(=O)/C=C/c1cnn(CCc2ccccc2)c1	0.5 to 1
Nc1ccccc1NC(=O)/C=C/c1cnn(CC/C=C/c2ccccc2)c1	> 1

May I ask what Kp has been recorded for Nc1ccccc1NC(=O)/C=C/c1cnn(CCCCc2ccccc2)c1 ?
0.5 to 1

---

Each item that follows carries a reported Kp.
assay text: Brain penetration studies
Format: in vivo
condition notes: C57/BL6/J, mouse, brain and plasma; mice, s.c. 5 or 50 mg/kg or i.v. 5 mg/kg; read-out: BPR (brain/plasma ratio, Cmax(brain)/Cmax(plasma))

# annotated cases, reported Kp shown
molecule	assay readout	result
Nc1ccccc1NC(=O)/C=C/c1cnn(CC(F)(F)c2ccccc2)c1	Kp	0.5 to 1
Nc1ccccc1NC(=O)/C=C/c1csc(CC=Cc2ccccc2)n1 [E2]	Kp	> 1
Cn1ccc(/C=C/C(=O)Nc2ccccc2N)n1	Kp	0.5 to 1

May I ask what Kp has been recorded for Cc1nc(/C=C/C(=O)Nc2ccccc2N)cs1 ?
0.5 to 1

May I ask what Kp has been recorded for Nc1ccccc1NC(=O)/C=C/c1cnn(Cc2ccc(F)cc2)c1 ?
0.1 to 0.2

May I ask what Kp has been recorded for Nc1ccccc1NC(=O)/C=C/c1cnn(CCc2c[nH]c3ccccc23)c1 ?
< 0.1

May I ask what Kp has been recorded for Nc1cc(F)ccc1NC(=O)/C=C/c1cnn(C/C=C/c2ccccc2)c1 [D2] ?
0.2 to 0.5

May I ask what Kp has been recorded for Nc1ccccc1NC(=O)/C=C/c1cnn(CCOc2ccc(C(F)(F)F)cc2)c1 ?
0.2 to 0.5

May I ask what Kp has been recorded for Nc1ccccc1NC(=O)/C=C/c1cnn(-c2ccccc2)c1 ?
> 1

May I ask what Kp has been recorded for Nc1ccccc1NC(=O)/C=C/c1cnn(CCOc2cc(F)cc(F)c2)c1 ?
0.2 to 0.5

---

Tested on: GM 15850 (lymphoblastoid cells line) cells
assay text: In-cell deacetylase inhibition assay (DAC assay)
Format: cell-based
condition notes: Homo sapiens, GM15850; GM 15850 cells, 4 h incubation; read-out: 850 DAC (in-cell deacetylase inhibition IC50)
pIC50: −log10 of the molar value.
assay readout: pIC50

given smiles	experimental system	result
Nc1ccccc1NC(=O)/C=C/c1cnn(CCOc2cc(F)cc(F)c2)c1	GM 15850 (lymphoblastoid cells line) cells	5.30 to 6.00

May I ask what pIC50 has been recorded for Nc1ccccc1NC(=O)/C=C/c1cnc2ccccn12 ?
< 4.70

May I ask what pIC50 has been recorded for Cn1cc(/C=C/C(=O)Nc2ccccc2N)cn1 ?
4.70 to 5.00

---

assay text: Brain penetration studies;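 further: compound levels in brain and plasma quantified by LC/MS/MS, sampled from pre-dose up to 4 h after dosing, three mice per dose and time point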
Type: in vivo
condition notes: C57/BL6/J, mouse, brain and plasma; mice, s.c. 5 or 50 mg/kg or i.v. 5 mg/kg; read-out: BPR (brain/plasma ratio, Cmax(brain)/Cmax(plasma))
Each item that follows carries a reported Kp.

# annotated cases, reported Kp shown
molecule	assay readout	result
Nc1ccccc1NC(=O)c1ccc(CC2CN(Cc3ccc4cc[nH]c4c3)C2)cc1 [F4]	Kp	0.5 to 1
Cc1cccc(Cn2cc(/C=C/C(=O)Nc3ccccc3N)cn2)n1 [D6]	Kp	< 0.1
Nc1ccccc1NC(=O)/C=C/c1cn2ccnc2s1 [A10]	Kp	0.2 to 0.5
Nc1ccccc1NC(=O)c1ccc(C=C2CCN(C(=O)OCc3ccccc3)CC2)cc1 [F1]	Kp	< 0.1

Let us examine a further case.
May I ask what Kp has been recorded for Nc1ccccc1NC(=O)/C=C/c1cc2ccccn2n1 [A8] ?
0.5 to 1

---

Tested on: GM 15850 (lymphoblastoid cells line) cells
assay text: In-cell deacetylase inhibition assay (DAC assay)
Type: cell-based
condition notes: Homo sapiens, GM15850; GM 15850 cells, 4 h incubation; read-out: 850 DAC (in-cell deacetylase inhibition IC50)
assay readout: IC50

# annotated cases, reported IC50 shown
molecule	IC50
CN(CCCn1cc(/C=C/C(=O)Nc2ccccc2N)cn1)c1ccccc1	1 to 5 µM
Nc1ccccc1NC(=O)c1ccc(C=C2CCN(Cc3cccnc3)CC2)cc1	10 to 20 µM
Nc1ccccc1NC(=O)/C=C/c1cnn(CCc2c[nH]c3ccccc23)c1	1 to 5 µM
Nc1ccccc1NC(=O)/C=C/c1cnn(CCOc2cc(F)cc(Cl)c2)c1	5 to 10 µM
Nc1ccccc1NC(=O)/C=C/c1cnn(CCCCc2ccccc2)c1	1 to 5 µM
Nc1ccccc1NC(=O)/C=C/c1cc2ccccn2n1	10 to 20 µM
Nc1ccccc1NC(=O)/C=C/c1cnn(Cc2ccc(F)cc2)c1	5 to 10 µM
Nc1ccccc1NC(=O)/C=C/c1csc(CC=Cc2ccccc2)n1 [E2]	10 to 20 µM
Nc1ccccc1NC(=O)/C=C/c1cnn(CC(F)(F)c2ccccc2)c1	5 to 10 µM
Cn1ccc(/C=C/C(=O)Nc2ccccc2N)n1	> 20 µM

May I ask what IC50 has been recorded for Nc1ccccc1NC(=O)/C=C/c1cnn(CCOc2ccc(C(F)(F)F)cc2)c1 ?
10 to 20 µM

May I ask what IC50 has been recorded for Nc1cc(F)ccc1NC(=O)/C=C/c1cnn(C/C=C/c2ccccc2)c1 [D2] ?
> 20 µM

May I ask what IC50 has been recorded for Cc1ncc(/C=C/C(=O)Nc2ccccc2N)s1 ?
> 20 µM

May I ask what IC50 has been recorded for CCn1cc(/C=C/C(=O)Nc2ccccc2N)cn1 ?
> 20 µM

May I ask what IC50 has been recorded for CCOCc1cn2cc(/C=C/C(=O)Nc3ccccc3N)sc2n1 [E1] ?
> 20 µM
